Origin of the recorded values: BigSolDB 2.1

# Particulars: in ethanol, 288.15 K
Measure: solubility (mole fraction)

In [3]: df
Out[3]:
                                 smiles_str  obs_value
0  CO/N=C(\C(=O)N[C@@H]1C(=O)N2C(C(=O)O)=C(CSC(=O)c3ccco3)CS[C@H]12)c1csc(N)n1.Cl    0.00192

----------
# Particulars: in n-propanol, 288.55 K
Measure: solubility (mole fraction)

In [3]: df
Out[3]:
                                 smiles_str  obs_value
0  CO/N=C(\C(=O)N[C@@H]1C(=O)N2C(C(=O)O)=C(CSC(=O)c3ccco3)CS[C@H]12)c1csc(N)n1.Cl   0.000573

----------
# Particulars: in ethanol, 303.1 K
Measure: solubility (mole fraction)

                                 smiles_str  obs_value
0  CO/N=C(\C(=O)N[C@@H]1C(=O)N2C(C(=O)O)=C(CSC(=O)c3ccco3)CS[C@H]12)c1csc(N)n1.Cl    0.00262

----------
# Particulars: in n-propanol, 283.55 K
Measure: solubility (mole fraction)

>>> df
                                 smiles_str  obs_value
0  CO/N=C(\C(=O)N[C@@H]1C(=O)N2C(C(=O)O)=C(CSC(=O)c3ccco3)CS[C@H]12)c1csc(N)n1.Cl   0.000534

----------
# Particulars: in isopropanol, 283.2 K
Measure: solubility (mole fraction)

In [3]: df
Out[3]:
                                 smiles_str  obs_value
0  CO/N=C(\C(=O)N[C@@H]1C(=O)N2C(C(=O)O)=C(CSC(=O)c3ccco3)CS[C@H]12)c1csc(N)n1.Cl   0.000235

----------
# Particulars: in methanol, 297.85 K
Measure: solubility (mole fraction)

>>> print(df.to_string())
                                 smiles_str                     measure  obs_value
0  CO/N=C(\C(=O)N[C@@H]1C(=O)N2C(C(=O)O)=C(CSC(=O)c3ccco3)CS[C@H]12)c1csc(N)n1.Cl  solubility (mole fraction)     0.0112

----------
# Particulars: in acetone, 288.2 K
Measure: solubility (mole fraction)

>>> df
                                 smiles_str  obs_value
0  CO/N=C(\C(=O)N[C@@H]1C(=O)N2C(C(=O)O)=C(CSC(=O)c3ccco3)CS[C@H]12)c1csc(N)n1.Cl    1.6e-05

----------
# Particulars: in n-propanol, 293.35 K
Measure: solubility (mole fraction)

>>> df
                                 smiles_str  obs_value
0  CO/N=C(\C(=O)N[C@@H]1C(=O)N2C(C(=O)O)=C(CSC(=O)c3ccco3)CS[C@H]12)c1csc(N)n1.Cl   0.000646

----------
# Particulars: in isopropanol, 312.8 K
Measure: solubility (mole fraction)

>>> print(df.to_string())
                                 smiles_str                     measure  obs_value
0  CO/N=C(\C(=O)N[C@@H]1C(=O)N2C(C(=O)O)=C(CSC(=O)c3ccco3)CS[C@H]12)c1csc(N)n1.Cl  solubility (mole fraction)   0.000793

----------
# Particulars: in n-propanol, 303.35 K
Measure: solubility (mole fraction)

In [3]: df
Out[3]:
                                 smiles_str  obs_value
0  CO/N=C(\C(=O)N[C@@H]1C(=O)N2C(C(=O)O)=C(CSC(=O)c3ccco3)CS[C@H]12)c1csc(N)n1.Cl   0.000802

----------
# Particulars: in acetone, 302.87 K
Measure: solubility (mole fraction)

>>> print(df.to_string())
                                 smiles_str  obs_value
0  CO/N=C(\C(=O)N[C@@H]1C(=O)N2C(C(=O)O)=C(CSC(=O)c3ccco3)CS[C@H]12)c1csc(N)n1.Cl      7e-05

----------
# Particulars: in ethanol, 318.75 K
Measure: solubility (mole fraction)

                                 smiles_str  obs_value
0  CO/N=C(\C(=O)N[C@@H]1C(=O)N2C(C(=O)O)=C(CSC(=O)c3ccco3)CS[C@H]12)c1csc(N)n1.Cl    0.00384

----------
# Particulars: in isopropanol, 298.15 K
Measure: solubility (mole fraction)

In [3]: df
Out[3]:
                                 smiles_str                     measure  obs_value
0  CO/N=C(\C(=O)N[C@@H]1C(=O)N2C(C(=O)O)=C(CSC(=O)c3ccco3)CS[C@H]12)c1csc(N)n1.Cl  solubility (mole fraction)   0.000402

----------
# Particulars: in ethanol, 298.15 K
Measure: solubility (mole fraction)

>>> print(df.to_string())
                                 smiles_str                     measure  obs_value
0  CO/N=C(\C(=O)N[C@@H]1C(=O)N2C(C(=O)O)=C(CSC(=O)c3ccco3)CS[C@H]12)c1csc(N)n1.Cl  solubility (mole fraction)    0.00233

----------
# Particulars: in isopropanol, 324.35 K
Measure: solubility (mole fraction)

                                 smiles_str  obs_value
0  CO/N=C(\C(=O)N[C@@H]1C(=O)N2C(C(=O)O)=C(CSC(=O)c3ccco3)CS[C@H]12)c1csc(N)n1.Cl    0.00134

----------
# Particulars: in n-propanol, 322.75 K
Measure: solubility (mole fraction)

                                 smiles_str  obs_value
0  CO/N=C(\C(=O)N[C@@H]1C(=O)N2C(C(=O)O)=C(CSC(=O)c3ccco3)CS[C@H]12)c1csc(N)n1.Cl    0.00135

----------
# Particulars: in acetone, 313.45 K
Measure: solubility (mole fraction)

>>> df
                                 smiles_str  obs_value
0  CO/N=C(\C(=O)N[C@@H]1C(=O)N2C(C(=O)O)=C(CSC(=O)c3ccco3)CS[C@H]12)c1csc(N)n1.Cl   0.000193

----------
# Particulars: in methanol, 307.35 K
Measure: solubility (mole fraction)

>>> print(df.to_string())
                                 smiles_str                     measure  obs_value
0  CO/N=C(\C(=O)N[C@@H]1C(=O)N2C(C(=O)O)=C(CSC(=O)c3ccco3)CS[C@H]12)c1csc(N)n1.Cl  solubility (mole fraction)     0.0127

----------
# Particulars: in n-propanol, 308.05 K
Measure: solubility (mole fraction)

In [3]: df
Out[3]:
                                 smiles_str  obs_value
0  CO/N=C(\C(=O)N[C@@H]1C(=O)N2C(C(=O)O)=C(CSC(=O)c3ccco3)CS[C@H]12)c1csc(N)n1.Cl   0.000922

----------
# Particulars: in acetone, 293.15 K
Measure: solubility (mole fraction)

                                 smiles_str  obs_value
0  CO/N=C(\C(=O)N[C@@H]1C(=O)N2C(C(=O)O)=C(CSC(=O)c3ccco3)CS[C@H]12)c1csc(N)n1.Cl    2.7e-05

----------
# Particulars: in isopropanol, 318.45 K
Measure: solubility (mole fraction)

                                 smiles_str  obs_value
0  CO/N=C(\C(=O)N[C@@H]1C(=O)N2C(C(=O)O)=C(CSC(=O)c3ccco3)CS[C@H]12)c1csc(N)n1.Cl      0.001

----------
# Particulars: in n-propanol, 298.35 K
Measure: solubility (mole fraction)

>>> print(df.to_string())
                                 smiles_str  obs_value
0  CO/N=C(\C(=O)N[C@@H]1C(=O)N2C(C(=O)O)=C(CSC(=O)c3ccco3)CS[C@H]12)c1csc(N)n1.Cl   0.000717

----------
# Particulars: in ethanol, 313.55 K
Measure: solubility (mole fraction)

In [3]: df
Out[3]:
                                 smiles_str  obs_value
0  CO/N=C(\C(=O)N[C@@H]1C(=O)N2C(C(=O)O)=C(CSC(=O)c3ccco3)CS[C@H]12)c1csc(N)n1.Cl    0.00335

----------
# Particulars: in ethanol, 293.15 K
Measure: solubility (mole fraction)

>>> df
                                 smiles_str                     measure  obs_value
0  CO/N=C(\C(=O)N[C@@H]1C(=O)N2C(C(=O)O)=C(CSC(=O)c3ccco3)CS[C@H]12)c1csc(N)n1.Cl  solubility (mole fraction)    0.00209
